# tested-target: full length active recombinant SYK enzyme (Homo sapiens, UniProt P43405)
# Construct: full length active recombinant SYK enzyme (Millipore, Calif.)
# test-summary: Inhibition of Syk tyrosine phosphorylation activity (LANCE TR-FRET kinase assay)
# particulars: activity in the Syk assays, class symbols
pIC50: −log10 of the molar value.
The compounds listed here are annotated with their pIC50.

See these solved cases before continuing.
compound="NC(=O)c1ncc(N[C@@H]2CCCC(F)(F)[C@@H]2N)nc1Nc1ccc2cnccc2c1 [Example 364]" val="8.00 to 9.00"
compound="CC(C)[C@@H](Nc1cnc(C(N)=O)c(Nc2cnc3ccccc3c2)n1)C(N)=O [Example 66]" val="8.00 to 9.00"
compound="COc1cc(Nc2nc(N[C@@H]3CCOC[C@@H]3N)cnc2C(N)=O)ccn1 [Example 357]" val="8.00 to 9.00"
compound="NC(=O)c1ncc(N[C@H]2CCNC2)nc1Nc1ccc2ncccc2c1 [Example 108]" val="7.00 to 8.00"
compound="CC[C@@H](Nc1cnc(C(N)=O)c(Nc2ccnc(OC3CCC3)c2)n1)C(N)=O [Example 354]" val="8.00 to 9.00"
compound="NC(=O)c1ncc(N[C@@H]2CCCC(F)(F)[C@@H]2N)nc1Nc1ccc2c(c1)COCC2 [Example 451]" val="8.00 to 9.00"
compound="Cc1nsc(Nc2nc(N[C@@H]3CCCC[C@@H]3N)cnc2C(N)=O)c1-c1cncnc1 [Example 125]" val="< 6.00"
compound="CC(C)[C@@H](Nc1cnc(C(N)=O)c(Nc2cccc(-n3nccn3)c2)n1)C(N)=O [Example 65]" val="7.00 to 8.00"
compound="NC(=O)c1ncc(N[C@@H]2CCCC(F)(F)[C@@H]2N)nc1Nc1cc(-c2ccccc2)no1 [Example 387]" val="< 6.00"
compound="NC(=O)c1ncc(N[C@@H]2CCCC[C@@H]2N)nc1Nc1cnc2cccnc2c1 [Example 419]" val="8.00 to 9.00"

# context switch: different compound, same pIC50
Data request: # get_value(readout='pIC50', item= CC[C@@H](Nc1cnc(C(N)=O)c(Nc2ccnc3ncccc23)n1)C(N)=O [Example 386] )
Data returned: 8.00 to 9.00
